# ASSAY_TARGET: RGS7/Gβ5/R7BP complex (Homo sapiens)
# Sequence (P49802 whole entry): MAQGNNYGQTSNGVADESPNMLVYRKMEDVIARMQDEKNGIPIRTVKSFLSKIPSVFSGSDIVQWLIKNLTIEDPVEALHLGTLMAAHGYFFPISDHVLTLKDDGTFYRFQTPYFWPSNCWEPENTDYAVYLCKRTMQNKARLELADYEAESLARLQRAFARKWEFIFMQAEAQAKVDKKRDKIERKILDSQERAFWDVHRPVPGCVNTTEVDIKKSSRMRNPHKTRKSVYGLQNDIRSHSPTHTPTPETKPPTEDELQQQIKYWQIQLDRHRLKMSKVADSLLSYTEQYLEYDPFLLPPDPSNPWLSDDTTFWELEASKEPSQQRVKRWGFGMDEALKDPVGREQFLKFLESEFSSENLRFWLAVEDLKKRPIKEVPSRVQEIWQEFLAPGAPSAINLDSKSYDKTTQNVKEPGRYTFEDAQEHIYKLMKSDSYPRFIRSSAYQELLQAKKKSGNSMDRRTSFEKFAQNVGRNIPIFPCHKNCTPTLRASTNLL
# Sequence (O14775 43-395 partner limits assumed): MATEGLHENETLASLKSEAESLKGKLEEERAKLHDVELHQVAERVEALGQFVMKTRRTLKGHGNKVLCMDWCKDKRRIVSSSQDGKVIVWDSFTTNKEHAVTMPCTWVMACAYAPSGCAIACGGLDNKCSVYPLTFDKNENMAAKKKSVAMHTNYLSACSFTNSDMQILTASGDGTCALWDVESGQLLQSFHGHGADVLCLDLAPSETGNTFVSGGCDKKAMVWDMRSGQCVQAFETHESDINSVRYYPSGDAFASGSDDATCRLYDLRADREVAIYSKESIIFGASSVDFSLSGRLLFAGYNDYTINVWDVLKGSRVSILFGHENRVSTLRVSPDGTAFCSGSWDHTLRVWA
# TEST: TR-FRET assay of RGS7/Gβ5 interaction with R7BP, inhibitors mode
# Assay type: binding
OUTCOME_MEASURE: pIC50
Recall that pIC50 is obtained by taking minus log10 of the concentration measured in molar.

Could you tell me which pIC50 is on file for O=C1CCCN1C(=S)C(=S)N1CCCC1=O ?
6.76

====

# ASSAY_TARGET: RGS7/Gβ5/R7BP complex (Homo sapiens)
# TEST: TR-FRET assay of RGS7/Gβ5 interaction with R7BP, activators mode
OUTCOME_MEASURE: pEC50
In simple prose, pEC50 is minus the logarithm base ten of a concentration in moles per litre.

Query (molecule): NC(=O)c1cc([N+](=O)[O-])cc([N+](=O)[O-])c1 [nitromide] ; field requested: pEC50
6.12

# credit: paper PMC8552049
